# Target or system: MATE2K (Homo sapiens, UniProt Q86VL8)
# Sequence (Q86VL8 1-566 isoform Q86VL8-3): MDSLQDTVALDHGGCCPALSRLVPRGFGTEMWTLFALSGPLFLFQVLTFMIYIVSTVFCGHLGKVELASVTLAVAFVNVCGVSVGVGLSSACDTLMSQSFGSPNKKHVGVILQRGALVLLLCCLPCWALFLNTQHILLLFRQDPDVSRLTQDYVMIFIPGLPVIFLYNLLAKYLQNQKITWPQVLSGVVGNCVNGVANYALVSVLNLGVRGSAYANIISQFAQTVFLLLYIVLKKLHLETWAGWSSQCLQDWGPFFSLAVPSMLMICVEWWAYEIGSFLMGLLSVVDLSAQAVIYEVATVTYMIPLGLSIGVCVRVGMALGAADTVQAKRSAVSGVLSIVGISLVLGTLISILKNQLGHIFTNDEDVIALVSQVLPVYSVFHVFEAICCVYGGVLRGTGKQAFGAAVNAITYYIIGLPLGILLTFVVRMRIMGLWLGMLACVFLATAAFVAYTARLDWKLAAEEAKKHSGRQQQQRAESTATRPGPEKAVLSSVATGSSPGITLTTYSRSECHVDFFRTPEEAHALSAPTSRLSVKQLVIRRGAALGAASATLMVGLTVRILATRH
# Method description: Concentration-dependent uptake (Michaelis-Menten) via MATE2K in HEK293 cells
# Stated conditions: read-out: MATE2K KM; HEK293, 1 min, net uptake
Parameter: log10 of Km (log10 of the value in µM)
Units before log transform: µM; reported quantity: Km; transform: log10.

NCCc1ccc(O)cc1: 3.03
Cc1ncc(C[n+]2csc(CCO)c2C)c(N)n1: 1.24
CNC[C@H](O)c1cccc(O)c1: 2.64
Nc1nc(=O)n([C@@H]2CS[C@H](CO)O2)cc1F: 2.94
CC(CCc1ccc(O)cc1)NCCc1ccc(O)c(O)c1 (centres unmarked): 1.94

Ask: Which measured log10 of Km value corresponds to CN(C)C(=O)Oc1cccc([N+](C)(C)C)c1 ?
Result: 2.59

Ask: Which measured log10 of Km value corresponds to CN(C)CCc1c[nH]c2ccc(C[C@H]3COC(=O)N3)cc12 [Zolmitriptan (S), Zolmitriptan] ?
Result: 1.98

Ask: Which measured log10 of Km value corresponds to CNC[C@H](O)c1ccc(O)c(O)c1 [Epinephrine] ?
Result: 3.18

Ask: Which measured log10 of Km value corresponds to Cc1ncc(CO)c(CO)c1O ?
Result: 2.69

Ask: Which measured log10 of Km value corresponds to CC(=O)OC(C)C[N+](C)(C)C (centres unmarked) ?
Result: 3.15

Ask: Which measured log10 of Km value corresponds to [H]/N=C(/N)N/C(=N/[H])NCCc1ccccc1 ?
Result: 1.86

* * *

# Target or system: MATE1 (Homo sapiens)
# Sequence (Q96FL8 whole entry): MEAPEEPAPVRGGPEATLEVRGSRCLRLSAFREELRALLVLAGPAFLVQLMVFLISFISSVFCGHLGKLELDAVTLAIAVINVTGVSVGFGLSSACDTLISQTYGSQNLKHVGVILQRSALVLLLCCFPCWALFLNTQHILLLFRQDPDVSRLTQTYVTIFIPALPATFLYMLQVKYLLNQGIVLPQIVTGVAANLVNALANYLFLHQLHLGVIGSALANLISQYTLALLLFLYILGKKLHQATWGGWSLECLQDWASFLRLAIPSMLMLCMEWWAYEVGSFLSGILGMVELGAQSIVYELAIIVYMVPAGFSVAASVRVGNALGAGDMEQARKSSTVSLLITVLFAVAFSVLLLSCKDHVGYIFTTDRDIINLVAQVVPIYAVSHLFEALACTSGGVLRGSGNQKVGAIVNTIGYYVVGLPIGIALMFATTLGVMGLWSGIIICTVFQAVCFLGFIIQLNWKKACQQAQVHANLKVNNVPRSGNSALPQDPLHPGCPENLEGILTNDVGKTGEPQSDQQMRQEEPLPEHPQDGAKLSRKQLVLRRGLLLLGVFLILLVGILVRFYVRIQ
# Method description: Concentration-dependent uptake (Michaelis-Menten) via MATE1 in HEK293 cells
# Stated conditions: read-out: MATE1 KM; HEK293, 1 min, net uptake
Parameter: Km (µM)
Entry rule: numbers only, all in µM.

# count of solved cases: 5
NCCc1ccc(O)cc1: 136
CNC[C@H](O)c1cccc(O)c1: 474
CN[C@@H]1CCc2[nH]c3ccc(C(N)=O)cc3c2C1: 70.4
[H]/N=C(/N)N/C(=N/[H])NCCc1ccccc1: 101
CC(=O)OC(C)C[N+](C)(C)C (centres unmarked): 1990

Ask: Which measured Km value corresponds to Cc1ncc(CO)c(CO)c1O ?
Result: 4230

Ask: Which measured Km value corresponds to Nc1nc(=O)n([C@@H]2CS[C@H](CO)O2)cc1F ?
Result: 992

* * *

# Target or system: MATE1 (Homo sapiens)
# Method description: Uptake ratio in MATE1-overexpressing HEK293 cells vs empty vector (2.5 μM, 1 min, HPLC-MS/MS)
# Type: cell-based
Parameter: MATE1 (uptake ratio)
Output: the number by itself.

# count of solved cases: 2
COc1cc(CCN)ccc1O: 4.05
COc1cc2c(cc1OC)[C@@]13CCN4CC5=CCO[C@H]6CC(=O)N2[C@H]1[C@H]6[C@H]5C[C@H]43: 1.13

Ask: Which measured MATE1 (uptake ratio) value corresponds to CC1(C)C[C@@H]1C(=O)N/C(=C\CCCCSC[C@H](N)C(=O)O)C(=O)O ?
Result: 1.13

Ask: Which measured MATE1 (uptake ratio) value corresponds to N=C(Nc1ccccc1)Nc1ccccc1 ?
Result: 1.53

Ask: Which measured MATE1 (uptake ratio) value corresponds to C=C[C@H]1CN2CC[C@H]1C[C@H]2[C@H](O)c1ccnc2ccccc12 ?
Result: 1.16

* * *

# Target or system: MATE2K (Homo sapiens, UniProt Q86VL8)
# Method description: Uptake ratio in MATE2K-overexpressing HEK293 cells vs empty vector (2.5 μM, 1 min, HPLC-MS/MS)
# Type: cell-based
# Stated conditions: uptake ratio MATE2K-overexpressing vs empty-vector HEK293 cells, 2.5 μM, 1 min; mean
Parameter MATE2: see the listing below.
Output: the number by itself.

OCc1cc(C(O)CNCCCCCCOCCCCc2ccccc2)ccc1O (stereo not shown): 1.17

// below: MATE2 requested for another molecule
Ask: Which measured MATE2 value corresponds to COc1ccccc1N1CCN(CCCNc2cc(=O)n(C)c(=O)n2C)CC1 ?
Result: 1.17

* * *

# Target or system: MATE1 (Homo sapiens)
# Method description: Uptake ratio in MATE1-overexpressing HEK293 cells vs empty vector (2.5 μM, 1 min, HPLC-MS/MS)
# Format: cell-based
# Stated conditions: mean ratio of uptake in MATE1-overexpressing HEK293 cells vs empty vector; 2.5 μM, 1 min
Parameter: MATE1 (uptake ratio)

Clc1ccc2c(c1)C(N1CCNCC1)=Nc1ccccc1O2: 1.32
Nc1ccncc1N: 17.06
COc1ccccc1OCCNCC(O)COc1cccc2[nH]c3ccccc3c12 [Carvedilol (R), Carvedilol]: 1.17
CC[C@H]1OC(=O)[C@H](C)[C@@H](O[C@H]2C[C@@](C)(OC)[C@@H](O)[C@H](C)O2)[C@H](C)[C@@H](O[C@@H]2O[C@H](C)C[C@H](N(C)C)[C@H]2O)[C@](C)(OC)C[C@@H](C)C(=O)[C@H](C)[C@@H](O)[C@]1(C)O: 1.21
CCN(CC)C(=O)Nc1ccc(OCC(O)CNC(C)(C)C)c(C(C)=O)c1 (stereo not drawn): 11.01

// below: MATE1 (uptake ratio) requested for another compound
Ask: Which measured MATE1 (uptake ratio) value corresponds to CC(C)C[C@H](NC(=O)[C@H](Cc1ccccc1)NC(=O)c1cnccn1)B(O)O ?
Result: 1.2

* * *

Parameter MATE1 ratio in this study: see the listing below.
# Target or system: MATE1 (Homo sapiens)
# Method description: Uptake ratio in MATE1-overexpressing HEK293 cells vs empty vector (2.5 μM, 1 min, HPLC-MS/MS)
# Assay type: cell-based
# Stated conditions: Table S1; 2.5 μM, 1 min
Output: the number by itself.

NCCCCN=C(N)N [Agmatine]: 1.08
C[C@@H]1CCN(C(=O)CC#N)C[C@@H]1N(C)c1ncnc2[nH]ccc12 [Tofacitinib]: 1.36

// below: MATE1 ratio in this study requested for another molecule
Ask: Which measured MATE1 ratio in this study value corresponds to Nc1ccn([C@H]2CC[C@@H](CO)O2)c(=O)n1 [Zalcitabine] ?
Result: 12.98

* * *

# Target or system: MATE2K (Homo sapiens, UniProt Q86VL8)
# Method description: Uptake ratio in MATE2K-overexpressing HEK293 cells vs empty vector (2.5 μM, 1 min, HPLC-MS/MS)
# Assay type: cell-based
# Stated conditions: mean ratio of uptake in MATE2K-overexpressing HEK293 cells vs empty vector; 2.5 μM, 1 min
Please assign Not fulfilled whenever MATE2 (uptake ratio) is at or above 2, and Fulfilled whenever it is below.

Here are 4 molecules together with their reported answers.
CN(C)CCc1c[nH]c2ccc(CS(=O)(=O)N3CCCC3)cc12: Not fulfilled
CCCCNc1cc(C(=O)O)cc(S(N)(=O)=O)c1Oc1ccccc1 [Bumetanide]: Fulfilled
N=C(N)NCCCCNC(=N)N: Not fulfilled
CCN1CCCC1CNC(=O)c1cc(S(=O)(=O)CC)c(N)cc1OC [Amisulpride (S), Amisulpride]: Not fulfilled

Ask: Would you kindly verify if MATE2 (uptake ratio) of CC[C@H]1OC(=O)[C@H](C)[C@@H](O[C@H]2C[C@@](C)(OC)[C@@H](O)[C@H](C)O2)[C@H](C)[C@@H](O[C@@H]2O[C@H](C)C[C@H](N(C)C)[C@H]2O)[C@](C)(OC)C[C@@H](C)C(=O)[C@H](C)[C@@H](O)[C@]1(C)O is strictly less than 2?
Result: Fulfilled

Ask: Would you kindly verify if MATE2 (uptake ratio) of CCN(CC)C(=O)Nc1ccc(OCC(O)CNC(C)(C)C)c(C(C)=O)c1 (stereo not drawn) is strictly less than 2?
Result: Not fulfilled

Ask: Would you kindly verify if MATE2 (uptake ratio) of CC(=O)c1cc2cccc(OCC(O)CNC(C)C)c2o1 (stereo not drawn) is strictly less than 2?
Result: Fulfilled

* * *

# Target or system: MATE2K (Homo sapiens, UniProt Q86VL8)
# Method description: Uptake ratio in MATE2K-overexpressing HEK293 cells vs empty vector (2.5 μM, 1 min, HPLC-MS/MS)
# Assay type: cell-based
# Stated conditions: Table S1; 2.5 μM, 1 min
Parameter: MATE2K ratio in this study
Output: the number by itself.

NCCCCN=C(N)N: 1.05

Ask: Which measured MATE2K ratio in this study value corresponds to N=C(N)N1CCc2ccccc2C1 ?
Result: 5.05

Ask: Which measured MATE2K ratio in this study value corresponds to CC1(C)N=C(N)N=C(N)N1c1ccc(Cl)cc1 ?
Result: 10.75

Ask: Which measured MATE2K ratio in this study value corresponds to CNC(=O)c1cccnc1 [Methylnicotinamide, N-Methylnicotinamide] ?
Result: 5.40

Ask: Which measured MATE2K ratio in this study value corresponds to CC(C)(C)NCC(O)c1ccc(O)c(CO)c1 [Salbutamol (S), Salbutamol] ?
Result: 5.09

Ask: Which measured MATE2K ratio in this study value corresponds to C[C@]12CC[C@@H]3c4ccc(OS(=O)(=O)O)cc4CC[C@H]3[C@@H]1CCC2=O [Estrone-3-sulfate] ?
Result: 2.08

Ask: Which measured MATE2K ratio in this study value corresponds to CC[C@@]1(O)C(=O)OCc2c1cc1n(c2=O)Cc2cc3c(CN(C)C)c(O)ccc3nc2-1 ?
Result: 1.61

Ask: Which measured MATE2K ratio in this study value corresponds to Nc1ccn([C@H]2CC[C@@H](CO)O2)c(=O)n1 ?
Result: 1.22
